Cited source: ChEMBL document CHEMBL4732167

System: Staphylococcus aureus
experiment-notes: Antibacterial activity against Staphylococcus aureus MTCC 96 assessed as bacterial growth inhibition
Format: functional
experimental-readout: MIC (µg/mL)
Just the number please, in µg/mL, no unit attached.

Query string: Request the reported MIC associated with COc1ccc(-n2c(SCC(=O)Nc3ccc(OC(=O)c4ccco4)cc3)nc(C)c2C(C)=O)cc1
Result string: 250

Query string: Now the same for COc1ccc(-n2c(SCC(=O)Nc3ccc(OC(=O)c4cccs4)cc3)nc(C)c2C(C)=O)cc1
Result string: 25

Query string: Now the same for O=C(O)c1cn(C2CC2)c2cc(N3CCNCC3)c(F)cc2c1=O [CIPROFLOXACIN]
Result string: 50

Query string: Now the same for COc1ccc(-n2c(SCC(=O)Nc3ccc(OCc4ccc(F)cc4)cc3)nc(C)c2C(C)=O)cc1
Result string: 100

Query string: Now the same for CC(=O)c1c(C)nc(SCC(=O)Nc2ccc(OC(=O)c3ccc(Cl)cc3)cc2)n1-c1ccc(Cl)cc1
Result string: 125

Query string: Now the same for CC1(C)S[C@@H]2[C@H](NC(=O)[C@H](N)c3ccccc3)C(=O)N2[C@H]1C(=O)O [AMPICILLIN]
Result string: 250

Query string: Now the same for CC(=O)c1c(C)nc(SCC(=O)Nc2ccc(OCc3ccc(F)cc3)cc2)n1-c1ccc(F)cc1
Result string: 62.5

Query string: Now the same for CC(=O)c1c(C)nc(SCC(=O)Nc2ccc(OCc3ccccc3)cc2)n1-c1ccccc1
Result string: 25

Query string: Now the same for CCn1cc(C(=O)O)c(=O)c2cc(F)c(N3CCNCC3)cc21 [NORFLOXACIN]
Result string: 10

Query string: Now the same for CC(=O)c1c(C)nc(SCC(=O)Nc2ccc(OCc3ccccc3)cc2)n1-c1ccc(F)cc1
Result string: 500

Query string: Now the same for CC(=O)c1c(C)nc(SCC(=O)Nc2ccc(OC(=O)c3ccc(Cl)cc3)cc2)n1-c1ccc(Br)cc1
Result string: 250
